Source listed as PubChem BioAssay AID248.

Each entry below carries its reported T/C.
# System: L1210 leukemia ip in BDF1 mice, survival T/C
# test-name: NCI In Vivo Anticancer Drug Screen. Data for tumor model L1210 Leukemia (intraperitoneal) in B6D2F1 (BDF1) mice
# assay-conditions: endpoint: mean survival time; dose: 100.0 mg/kg/injection; schedule: Q01DX009 (ip); vehicle: Klucel (hydroxypropylcellulose) (HPC); higher = longer survival
Toxic doses and inconclusive results are not listed.

Known T/C results, listed for orientation:
compound | T/C
CCC(C)C(C#N)(CCN(C)C)Cc1cccc2ccccc12 (stereo not given) | 100 % of control
CCCC(=O)C(C)C(=O)C(F)(F)F.CCCC(=O)C(C)C(=O)C(F)(F)F.CCCC(=O)C(C)C(=O)C(F)(F)F.[Er] (stereo not given) | 116 % of control
COC1OC(COS(C)(=O)=O)C(O)C(O)C1OS(C)(=O)=O (stereo not given) | 109 % of control

Next, consider the following compound.
Request: Specify the recorded T/C for Cc1ccc(NC(=O)OCCOc2ccc(Cl)cc2)c([N+](=O)[O-])c1 , system: L1210 leukemia ip in BDF1 mice, survival T/C.
Result: 87 % of control

====

Each entry below carries its reported T/C.
# Tested on: L1210 leukemia ip in BDF1 mice, survival T/C
# test-name: NCI In Vivo Anticancer Drug Screen. Data for tumor model L1210 Leukemia (intraperitoneal) in B6D2F1 (BDF1) mice
# assay-conditions: endpoint: mean survival time; dose: 100.0 mg/kg/injection; schedule: Q01DX009 (ip); vehicle: Klucel (hydroxypropylcellulose) (HPC); higher = longer survival
Toxic doses and inconclusive results are not listed.

compound | system-tested | measured-value
BrCC1(c2ccccc2)OCCO1 | L1210 leukemia ip in BDF1 mice, survival T/C | 89 % of control

Request: Specify the recorded T/C for CSc1nsc(SC)c1C#N , system: L1210 leukemia ip in BDF1 mice, survival T/C.
Result: 103 % of control

Request: Specify the recorded T/C for CN1C(=O)CCS(=O)(=O)C1c1ccc(Cl)cc1 (stereo not drawn) , system: L1210 leukemia ip in BDF1 mice, survival T/C.
Result: 101 % of control

Request: Specify the recorded T/C for O=C(O)/C=C/c1cccc(O)c1 , system: L1210 leukemia ip in BDF1 mice, survival T/C.
Result: 98 % of control

Request: Specify the recorded T/C for CC(=O)ONc1nc(C)c(CCC2OCCO2)c(=O)[nH]1 , system: L1210 leukemia ip in BDF1 mice, survival T/C.
Result: 95 % of control

Request: Specify the recorded T/C for Cc1[nH]c(=O)nc(Br)c1[N+](=O)[O-] , system: L1210 leukemia ip in BDF1 mice, survival T/C.
Result: 107 % of control

Request: Specify the recorded T/C for CCN(CC)c1cc(Cl)c(C=O)cc1[N+](=O)[O-] , system: L1210 leukemia ip in BDF1 mice, survival T/C.
Result: 100 % of control

Request: Specify the recorded T/C for COc1ccc(Cl)cc1NC(=O)Nc1cc(C)ccn1 , system: L1210 leukemia ip in BDF1 mice, survival T/C.
Result: 104 % of control

Request: Specify the recorded T/C for COc1c(C)cccc1[N+](=O)[O-] , system: L1210 leukemia ip in BDF1 mice, survival T/C.
Result: 104 % of control

Request: Specify the recorded T/C for O=[N+]([O-])c1ccc(CC(O)c2ccccc2Cl)cc1 (stereo not drawn) , system: L1210 leukemia ip in BDF1 mice, survival T/C.
Result: 102 % of control

Request: Specify the recorded T/C for CCn1cc([N+](=O)[O-])ccc1=O , system: L1210 leukemia ip in BDF1 mice, survival T/C.
Result: 104 % of control

Request: Specify the recorded T/C for CCO/C=C1\SC(=S)N(CCc2ccc(OC)c(OC)c2)C1=O , system: L1210 leukemia ip in BDF1 mice, survival T/C.
Result: 94 % of control

Request: Specify the recorded T/C for O=C1CC=Nc2ccc([N+](=O)[O-])cc21 , system: L1210 leukemia ip in BDF1 mice, survival T/C.
Result: 101 % of control

====

# System: L1210 leukemia ip in BDF1 mice, survival T/C
# test-name: NCI In Vivo Anticancer Drug Screen. Data for tumor model L1210 Leukemia (intraperitoneal) in B6D2F1 (BDF1) mice
# assay-conditions: endpoint: mean survival time; dose: 25.0 mg/kg/injection; schedule: Q04DX003 (ip); vehicle: saline; higher = longer survival
Toxic doses and inconclusive results are not listed.
observation-type: T/C

molecule | measured-value
CC(=O)N1C(C)C1(c1ccccc1)[n+]1ccccc1 (stereo not drawn) | 88 % of control
N#CC(Cl)(Cl)CCl | 96 % of control

Next, consider the following molecule.
Request: Report measured T/C; entry is [Cl][Pd]([Cl])([Cl])[Cl]
Result: 98 % of control

====

# System: L1210 leukemia ip in BDF1 mice, survival T/C
# test-name: NCI In Vivo Anticancer Drug Screen. Data for tumor model L1210 Leukemia (intraperitoneal) in B6D2F1 (BDF1) mice
# assay-conditions: endpoint: mean survival time; dose: 200.0 mg/kg/injection; schedule: Q04DX003 (ip); vehicle: saline with Tween-80; higher = longer survival
Inconclusive results and toxic doses are left out.
observation-type: T/C

Known T/C results, listed for orientation:
compound | system-tested | observation-type | measured-value
O=C(O)c1cc(I)c(I)c(I)c1 | L1210 leukemia ip in BDF1 mice, survival T/C | T/C | 101 % of control
Cc1ccc(NC(=O)NCCCCCCNC(=O)Nc2ccc(C)c(Cl)c2)cc1Cl | L1210 leukemia ip in BDF1 mice, survival T/C | T/C | 92 % of control
Cc1ccc(C)c(NC(=O)OCc2ccco2)c1 | L1210 leukemia ip in BDF1 mice, survival T/C | T/C | 93 % of control
Cc1ccc(NC(=O)COc2ccc(Cl)cc2Cl)c(C)c1 | L1210 leukemia ip in BDF1 mice, survival T/C | T/C | 91 % of control
COC(=O)C1C2CC(=O)C(C2)C1C(=O)OC (stereo not drawn) | L1210 leukemia ip in BDF1 mice, survival T/C | T/C | 86 % of control
C=CCCCCCCCCC(N)=O | L1210 leukemia ip in BDF1 mice, survival T/C | T/C | 95 % of control
O=C(COc1cccc(Cl)c1Cl)Nc1cccnc1 | L1210 leukemia ip in BDF1 mice, survival T/C | T/C | 96 % of control

Next, consider the following compound.
Request: Report measured T/C; entry is COc1cc(C(=O)C[n+]2ccccc2)ccc1O
Result: 93 % of control

====

# System: L1210 leukemia ip in BDF1 mice, survival T/C
# test-name: NCI In Vivo Anticancer Drug Screen. Data for tumor model L1210 Leukemia (intraperitoneal) in B6D2F1 (BDF1) mice
# assay-conditions: endpoint: mean survival time; dose: 400.0 mg/kg/injection; schedule: Q04DX003 (ip); vehicle: saline; higher = longer survival
Toxic doses and inconclusive results are not listed.
observation-type: T/C

compound | system-tested | measured-value
Brc1ccc2c(c1)nc1n2CCC1 | L1210 leukemia ip in BDF1 mice, survival T/C | 101 % of control
COc1cc2cc3c4cc(OC)c(OC)cc4cc[n+]3c(C)c2cc1OC | L1210 leukemia ip in BDF1 mice, survival T/C | 120 % of control
CC12CCC(C3=C1OC(=O)C(c1ccccc1)(c1ccccc1)C3=O)C2(C)C (stereo not drawn) | L1210 leukemia ip in BDF1 mice, survival T/C | 103 % of control
COc1cc(C=C2c3ccccc3-c3ccccc32)ccc1O | L1210 leukemia ip in BDF1 mice, survival T/C | 91 % of control
CCOC(=O)C(=CN1CCCCCC1)C(=O)OCC | L1210 leukemia ip in BDF1 mice, survival T/C | 89 % of control
NCCCN | L1210 leukemia ip in BDF1 mice, survival T/C | 98 % of control
CC1C(=O)CCC2(C)CCC(C)(C)CC12 (stereo not drawn) | L1210 leukemia ip in BDF1 mice, survival T/C | 103 % of control

Next, consider the following compound.
Request: Specify the recorded T/C for Cc1nccc(=O)[nH]1 , system: L1210 leukemia ip in BDF1 mice, survival T/C.
Result: 92 % of control

====

# Tested on: L1210 leukemia ip in BDF1 mice, survival T/C
# test-name: NCI In Vivo Anticancer Drug Screen. Data for tumor model L1210 Leukemia (intraperitoneal) in B6D2F1 (BDF1) mice
# assay-conditions: endpoint: mean survival time; dose: 100.0 mg/kg/injection; schedule: Q01DX001 (ip); vehicle: carboxymethylcellulose (CMC); higher = longer survival
# Protocol: The antitumor activity of compounds was measured in mice bearing transplantable tumors. Survival or tumor size were measured and the results are expressed as the measurement made in the treated group (T) divided by the measurement made in the vehicle treated control group (C). The tumor model used in this assay is L1210 Leukemia (intraperitoneal) in B6D2F1 (BDF1) mice
Toxic doses and inconclusive results are not listed.
Each entry below carries its reported T/C.

molecule | T/C
CC(O)C1CCN(Cc2ccccc2)CC1 (configuration not stated) | 108 % of control
Cc1ccc2c(c1)C(c1ccccc1)(c1ccccc1)OC2 | 95 % of control
CC(=O)Nc1ccc(O)cc1 | 93 % of control
CN(C)Cc1c(CC(O)(c2ccccc2)c2ccccc2)ccc2ccccc12 | 100 % of control
CCOC(CN1CCOCC1)c1ccccc1 (configuration not stated) | 99 % of control
COC1OC2COC(C)(C)OC2C1OS(=O)(=O)c1ccc(C)cc1 (configuration not stated) | 104 % of control

Next, consider the following molecule.
Request: Report measured T/C; entry is O=C(Oc1ccccc1)c1cc(Br)ccc1O
Result: 97 % of control
